experiment.notes: probe aNOTCH3 binding on compound microarray – biochemical, small-molecule microarray, 635/667 nm fluorescence, primary screen (AID 1120);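 note: probe is a biotin-tagged antibody raised against NOTCH3 rather than NOTCH3 protein; score merges spot fluorescence near 667 nm with spot signal to noise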
particulars: higher = more signal
Would you please tag the item rule met when its composite z-score is -0.06 or above, and rule not met when it is below?

compound	class.name
CCCNC(=O)[C@@]1(C)c2ccccc2C(=O)N(c2ccc(C)cn2)[C@H]1c1ccc(CO)cc1	rule not met
CCCCC=C[C@@H](NC(=O)OCc1ccccc1Cl)c1ccccc1	rule met
CCOC(=O)C[C@H]1[C@H](OC(=O)Cc2ccc3c(c2)OCO3)[C@@H](NC(=O)c2ccc3ccccc3n2)c2cc(OCCCO)ccc2N1C(=O)c1ccccc1	rule not met
COc1cc2c(cc1O)C(C1CC1)N(C)CC2 (configuration not stated)	rule not met
CCCCCC1=C2CNC(C)(C(=O)OC)C=C2C(C)C1=O (configuration not stated)	rule not met
COC(=O)[C@@]1(Cc2ccc(F)cc2)[C@H]2c3cc(C(=O)N4CCCC4)n(Cc4ccc(C)c(F)c4F)c3C[C@H]2CN1C(=O)c1ccccc1	rule met
C=CC[C@@H](OC(=O)Nc1ccc(SC)cc1)c1ccc(O)c(F)c1	rule not met
CCOC(=O)C[C@H]1[C@H](OC(=O)Cc2ccc3c(c2)OCO3)[C@@H](NC(=O)c2ccc3ccccc3n2)c2cc(OCCCO)ccc2N1C(=O)c1ccc2ccccc2n1	rule not met
C=C(COC)C(=O)CC[C@@H](OC(C)=O)c1cccc(OCCO)c1	rule not met
CC(C)=C1C(=O)C(c2ccccc2)=C2CN3C(=O)N(CCc4ccccc4)C(=O)[C@]3(Cc3ccc(C(F)(F)F)cc3)[C@H]21	rule met
O=C1NC(=O)C2C1C=CC(C(O)c1ccco1)N2Nc1ccc(Cl)cc1Cl (configuration not stated)	rule not met
CCCCCN1CC=CC23O[C@@H]4/C=C\CCC(C)OC(=O)C4[C@H]2C(=O)N(C(CO)C(C)C)[C@@H]3C1=O (some centres not stated)	rule not met
CCOC(=O)C1=CC[C@@H](c2ccccc2)N(S(=O)(=O)c2ccc(C)cc2)[C@H]1c1ccccc1	rule met
CCOC(=O)C[C@H]1[C@H](OC(=O)c2cc3ccccc3oc2=O)[C@@H](NC(=O)CC(C)C)c2cc(OCCCO)ccc2N1C(=O)c1ccc2ccccc2n1	rule met
CCOC(=O)C[C@H]1[C@H](OC(=O)c2cc3ccccc3oc2=O)[C@@H](NC(=O)c2ccc3ccccc3n2)c2cc(OCCCO)ccc2N1C(=O)Cc1ccc(OC)cc1	rule met
CCCC=C(CCC)[C@@H](NP(=O)(c1ccccc1)c1ccccc1)c1ccc(-c2ccccc2)cc1	rule met
[N-]=[N+]=NCc1ccccc1[C@H]1OC(c2ccc(OCCCO)cc2)=N[C@@]1(Cc1ccccc1N=[N+]=[N-])C(=O)NCC(O)CO (some centres not stated)	rule met

###

target.of.assay: Luciferin 4-monooxygenase (Photinus pyralis) (UniProt P08659)
Sequence (P08659 whole entry, looked up): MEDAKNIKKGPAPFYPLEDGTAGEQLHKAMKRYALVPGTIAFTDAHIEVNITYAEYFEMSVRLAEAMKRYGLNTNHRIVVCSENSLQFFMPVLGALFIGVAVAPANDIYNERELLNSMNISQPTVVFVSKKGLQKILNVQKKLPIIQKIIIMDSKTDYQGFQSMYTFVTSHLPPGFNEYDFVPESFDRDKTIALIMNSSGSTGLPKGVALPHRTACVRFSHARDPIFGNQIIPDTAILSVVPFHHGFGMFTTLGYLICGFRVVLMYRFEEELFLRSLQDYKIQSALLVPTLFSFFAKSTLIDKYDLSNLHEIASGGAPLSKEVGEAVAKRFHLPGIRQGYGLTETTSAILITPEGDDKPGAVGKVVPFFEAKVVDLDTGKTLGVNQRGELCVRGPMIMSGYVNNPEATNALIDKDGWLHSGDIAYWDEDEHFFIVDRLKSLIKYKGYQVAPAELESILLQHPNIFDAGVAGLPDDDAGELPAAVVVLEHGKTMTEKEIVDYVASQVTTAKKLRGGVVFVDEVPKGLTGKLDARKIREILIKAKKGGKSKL
experiment.notes: inhibition of purified Photinus pyralis luciferase – biochemical, luminescence, purified enzyme, 2006 set, primary screen (AID 1141);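 note: cell-free assay with purified firefly luciferase at 100 ng per well in PBS; test concentration not given here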
particulars: purified firefly luciferase, SteadyGlo luminescence, 30 min; higher = more signal, called active from +8 up or from −8 down
z-score below 0.7 gives No; z-score at or above it gives Yes.

molecule	class.name
COC(=O)[C@@]1(Cc2ccccc2)[C@H]2c3cc(C(=O)N(C)C)n(Cc4ccc(C)o4)c3C[C@H]2CN1C(=O)c1ccccc1	No
CC(=O)N1CC2(CC2)CC1c1ccccc1 (stereo not given)	Yes
COc1cc2c(cc1O)C(c1ccc(CN3CCCC3)cc1)N(Cc1cc3c(cc1Br)OCO3)CC2 (stereo not given)	No
CC(C)C(CO)N1C(=O)[C@@H]2C3C(=O)OCCC/C=C\[C@H]3OC23C=CCN(Cn2nnc4ccccc42)C(=O)[C@@H]13 (stereo not given in full)	No

Ref: PubChem BioAssay
